- ASSAY SYSTEM: 17β-HSD3 (Homo sapiens, UniProt P37058)
- Construct: expressed in transfected cells; host or cells: HEK-293 (homogenate)
- Sequence (P37058 1-310): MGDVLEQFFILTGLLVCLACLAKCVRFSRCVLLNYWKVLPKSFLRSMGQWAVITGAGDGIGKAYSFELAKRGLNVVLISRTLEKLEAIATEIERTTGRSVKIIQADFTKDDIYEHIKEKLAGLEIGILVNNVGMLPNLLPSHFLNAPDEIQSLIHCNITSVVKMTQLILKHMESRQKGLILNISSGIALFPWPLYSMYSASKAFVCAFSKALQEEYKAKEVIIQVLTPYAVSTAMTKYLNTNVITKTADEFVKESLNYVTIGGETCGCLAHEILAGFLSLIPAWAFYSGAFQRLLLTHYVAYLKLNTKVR
- PROTOCOL SUMMARY: Inhibition of 17β-HSD3 in homogenated HEK-293 cells
- Type: biochemical
- PROTOCOL CONDITIONS: Table 3; 0.1 μM
Field: label. Allowed values: fulfilled (Homo (%) (0.1 μM) < 80%) or not fulfilled (Homo (%) (0.1 μM) >= 80%).

Consider the worked cases shown below.
1) CC1CN(C[C@@]2(O)CC[C@@]3(C)[C@@H](CC[C@@H]4[C@@H]3CC[C@]3(C)C(=O)CC[C@@H]43)C2)C(C)CN1Cc1cccc(SC(F)(F)F)c1 (stereo partly drawn) [Compound 11d] : not fulfilled
2) CC1CN(CC2(O)CCC3(C)C(CCC4C5CCC(=O)C5(C)CCC43)C2)C(C)CN1Cc1cccnc1 (stereo not drawn) [Compound 11g] : fulfilled
3) C[C@]12CC[C@](O)(CN3CCN(Cc4cc(C(F)(F)F)cc(C(F)(F)F)c4)CC3)C[C@@H]1CC[C@@H]1[C@@H]2CC[C@]2(C)C(=O)CC[C@@H]12 [Compound 10j] : not fulfilled

Problem: # TODO verify Homo (%) (0.1 μM) < 80% strictly for this molecule: CC1CN(CC2(O)CCC3(C)C(CCC4C5CCC(=O)C5(C)CCC43)C2)C(C)CN1Cc1ccccc1C(F)(F)F (stereo not drawn) [Compound 11b]
Solution: not fulfilled

Problem: # TODO verify Homo (%) (0.1 μM) < 80% strictly for this molecule: CC1CN(CC2(O)CCC3(C)C(CCC4C5CCC(=O)C5(C)CCC43)C2)C(C)CN1Cc1ccc(C(F)(F)F)cc1C(F)(F)F (stereo not drawn) [Compound 11i]
Solution: fulfilled

Problem: # TODO verify Homo (%) (0.1 μM) < 80% strictly for this molecule: CC1CN(C[C@@]2(O)CC[C@@]3(C)[C@@H](CC[C@@H]4[C@@H]3CC[C@]3(C)C(=O)CC[C@@H]43)C2)C(C)CN1Cc1cccc(C(F)(F)F)c1 (stereo partly drawn) [Compound 11a]
Solution: not fulfilled

----------
Give inhibition at 0.01 µM for every item shown.
- ASSAY SYSTEM: 17β-HSD3 (Homo sapiens, UniProt P37058)
- Construct: expressed in transfected cells; host or cells: HEK-293 (homogenate)
- PROTOCOL SUMMARY: Inhibition of 17β-HSD3 in homogenated HEK-293 cells
- Assay type: biochemical
- PROTOCOL CONDITIONS: Table 3; 0.01 μM; read-out: Homo (%) (0.01 μM)
One number for each entry, in %.

Would you mind giving inhibition at 0.01 µM for every compound in the list below?
1. C[C@]12CC[C@](O)(CN3CCN(Cc4cccnc4)CC3)C[C@@H]1CC[C@@H]1[C@@H]2CC[C@]2(C)C(=O)CC[C@@H]12 [Compound 10g]
2. C[C@]12CC[C@](O)(CN3CCN(C(=O)c4ccc(C(F)(F)F)cc4)CC3)C[C@@H]1CC[C@@H]1[C@@H]2CC[C@]2(C)C(=O)CC[C@@H]12 [Compound 12e]
3. C[C@]12CC[C@](O)(CN3CCN(C(=O)c4cccc(C(F)(F)F)c4)CC3)C[C@@H]1CC[C@@H]1[C@@H]2CC[C@]2(C)C(=O)CC[C@@H]12 [Compound 12d]
4. C[C@]12CC[C@](O)(CN3CCN(S(=O)(=O)c4ccccc4C(F)(F)F)CC3)C[C@@H]1CC[C@@H]1[C@@H]2CC[C@]2(C)C(=O)CC[C@@H]12 [Compound 14b]

Solution:
[10, 22, 10, 45]

Would you mind giving inhibition at 0.01 µM for every compound in the list below?
1. COc1cccc(CN2CC(C)N(C[C@@]3(O)CC[C@@]4(C)[C@@H](CC[C@@H]5[C@@H]4CC[C@]4(C)C(=O)CC[C@@H]54)C3)CC2C)c1 (stereo partly drawn) [Compound 11f]
2. COc1cccc(CN2CCN(C[C@@]3(O)CC[C@@]4(C)[C@@H](CC[C@@H]5[C@@H]4CC[C@]4(C)C(=O)CC[C@@H]54)C3)CC2)c1 [Compound 10f]
3. C[C@]12CC[C@](O)(CN3CCN(Cc4ccccc4C(F)(F)F)CC3)C[C@@H]1CC[C@@H]1[C@@H]2CC[C@]2(C)C(=O)CC[C@@H]12 [Compound 10b]
4. C[C@]12CC[C@](O)(CN3CCN(S(=O)(=O)c4cccc(C(F)(F)F)c4)CC3)C[C@@H]1CC[C@@H]1[C@@H]2CC[C@]2(C)C(=O)CC[C@@H]12 [Compound 14a]

Solution:
[19, 21, 18, 21]

Problem: Look up inhibition at 0.01 µM with 17β-HSD3 (Homo sapiens, UniProt P37058) for this compound: C[C@]12CC[C@](O)(CN3CCN(Cc4cccc(SC(F)(F)F)c4)CC3)C[C@@H]1CC[C@@H]1[C@@H]2CC[C@]2(C)C(=O)CC[C@@H]12 [Compound 10d]
Solution: 3

----------
- Tested on: MCF-7 cells
- PROTOCOL SUMMARY: Estrogenic activity in MCF-7 cells; also: key: — = no; + = weak; ++ = medium to strong
- Type: cell-based, human
- PROTOCOL CONDITIONS: growth of estrogen-starved MCF-7 cells, 7 days, 1.0 μM
QUANTITY MEASURED: Estrogenicity (1.0 μM)

Some molecules with known Estrogenicity (1.0 μM) results, for comparison:
1. C[C@]12CC[C@@H]3c4ccc(CCO)cc4CC[C@H]3[C@@H]1CC(Cc1cccc(C(N)=O)c1)[C@@H]2O (stereo partly shown) [IV] : ++
2. C[C@]12CC[C@@H]3c4ccc(CN)cc4CC[C@H]3[C@@H]1C[C@H](Cc1cccc(C(N)=O)c1)[C@@H]2O [Compound 39] : ++
3. C[C@]12CC[C@@H]3c4ccc(F)cc4CC[C@H]3[C@@H]1C[C@H](Cc1cccc(C(N)=O)c1)[C@@H]2O [Compound 57] : +
4. C[C@]12CC[C@@H]3c4ccc(C(N)=O)cc4CC[C@H]3[C@@H]1C[C@H](Cc1cccc(C(N)=O)c1)[C@@H]2O [Compound 61] : ++
5. C[C@]12CC[C@@H]3c4ccc(CC(=O)O)cc4CC[C@H]3[C@@H]1C[C@H](Cc1cccc(C(N)=O)c1)[C@@H]2O [Compound 31] : +
6. C[C@]12CC[C@@H]3c4ccc(B(O)O)cc4CC[C@H]3[C@@H]1C[C@H](Cc1cccc(C(N)=O)c1)[C@@H]2O [Compound 46] : ++
7. C[C@]12CC[C@@H]3c4ccc(C(=O)O)cc4CC[C@H]3[C@@H]1C[C@H](Cc1cccc(C(N)=O)c1)[C@@H]2O [Compound 36] : ++
8. C[C@]12CC[C@@H]3c4ccc(CO)cc4CC[C@H]3[C@@H]1C[C@H](Cc1cccc(C(N)=O)c1)[C@@H]2O [II] : +
9. C[C@]12CC[C@@H]3c4ccc(N)cc4CC[C@H]3[C@@H]1C[C@H](Cc1cccc(C(N)=O)c1)[C@@H]2O [Compound 50] : +

We now examine a further molecule.
Problem: Name the recorded Estrogenicity (1.0 μM) for CNC(=O)c1ccc2c(c1)CC[C@@H]1[C@@H]2CC[C@]2(C)[C@@H](O)[C@@H](Cc3cccc(C(N)=O)c3)C[C@@H]12 [Compound 41d] .
Solution: +

----------
- ASSAY SYSTEM: 17β-HSD3 (Homo sapiens, UniProt P37058)
- Construct: expressed in transfected cells; host or cells: HEK-293 (homogenate)
- PROTOCOL SUMMARY: Inhibition of 17β-HSD3 in homogenated HEK-293 cells
- Type: biochemical
- PROTOCOL CONDITIONS: Table 3; 0.01 μM
Field: label. Allowed values: 1 (Homo (%) (0.01 μM) < 20%) or -1 (Homo (%) (0.01 μM) >= 20%).

Consider the worked cases shown below.
1) CC1CN(CC2(O)CCC3(C)C(CCC4C5CCC(=O)C5(C)CCC43)C2)C(C)CN1Cc1ccc(C(F)(F)F)cc1C(F)(F)F (centres unmarked) [Compound 11i] : 1
2) C[C@]12CC[C@](O)(CN3CCN(C(=O)C4CCCCC4)CC3)C[C@@H]1CC[C@@H]1[C@@H]2CC[C@]2(C)C(=O)CC[C@@H]12 [Compound 12b] : 1
3) C[C@]12CC[C@](O)(CN3CCN(Cc4cc(C(F)(F)F)cc(C(F)(F)F)c4)CC3)C[C@@H]1CC[C@@H]1[C@@H]2CC[C@]2(C)C(=O)CC[C@@H]12 [Compound 10j] : -1
4) CC1CN(S(=O)(=O)c2ccccc2C(F)(F)F)C(C)CN1CC1(O)CCC2(C)C(CCC3C4CCC(=O)C4(C)CCC32)C1 (centres unmarked) [Compound 15b] : -1
5) CC1CN(C[C@@]2(O)CC[C@@]3(C)[C@@H](CC[C@@H]4[C@@H]3CC[C@]3(C)C(=O)CC[C@@H]43)C2)C(C)CN1Cc1cccc(SC(F)(F)F)c1 (some centres unmarked) [Compound 11d] : 1
6) CC1CN(C[C@@]2(O)CC[C@@]3(C)[C@@H](CC[C@@H]4[C@@H]3CC[C@]3(C)C(=O)CC[C@@H]43)C2)C(C)CN1Cc1cc(C(F)(F)F)cc(C(F)(F)F)c1 (some centres unmarked) [Compound 11j] : -1
7) CC1CN(C(=O)C2CCCCC2)C(C)CN1C[C@@]1(O)CC[C@@]2(C)[C@@H](CC[C@@H]3[C@@H]2CC[C@]2(C)C(=O)CC[C@@H]32)C1 (some centres unmarked) [Compound 13b] : -1
8) CC1CN(C[C@@]2(O)CC[C@@]3(C)[C@@H](CC[C@@H]4[C@@H]3CC[C@]3(C)C(=O)CC[C@@H]43)C2)C(C)CN1Cc1cccc(Cl)c1 (some centres unmarked) [Compound 11e] : -1

Problem: # TODO verify Homo (%) (0.01 μM) < 20% strictly for this compound: C[C@]12CC[C@](O)(CN3CCN(Cc4ccc(C(F)(F)F)cc4C(F)(F)F)CC3)C[C@@H]1CC[C@@H]1[C@@H]2CC[C@]2(C)C(=O)CC[C@@H]12 [Compound 10i]
Solution: -1

Problem: # TODO verify Homo (%) (0.01 μM) < 20% strictly for this compound: CC1CN(C[C@@]2(O)CC[C@@]3(C)[C@@H](CC[C@@H]4[C@@H]3CC[C@]3(C)C(=O)CC[C@@H]43)C2)C(C)CN1Cc1cccc(C(F)(F)F)c1 (some centres unmarked) [Compound 11a]
Solution: -1

Problem: # TODO verify Homo (%) (0.01 μM) < 20% strictly for this compound: CC1CN(C(=O)c2cccc(C(F)(F)F)c2)C(C)CN1CC1(O)CCC2(C)C(CCC3C4CCC(=O)C4(C)CCC32)C1 (centres unmarked) [Compound 13c]
Solution: -1
